# subjectOfTest: APOL1 (Homo sapiens, UniProt O14791)
# Sequence (O14791 1-398 S342G/I384M): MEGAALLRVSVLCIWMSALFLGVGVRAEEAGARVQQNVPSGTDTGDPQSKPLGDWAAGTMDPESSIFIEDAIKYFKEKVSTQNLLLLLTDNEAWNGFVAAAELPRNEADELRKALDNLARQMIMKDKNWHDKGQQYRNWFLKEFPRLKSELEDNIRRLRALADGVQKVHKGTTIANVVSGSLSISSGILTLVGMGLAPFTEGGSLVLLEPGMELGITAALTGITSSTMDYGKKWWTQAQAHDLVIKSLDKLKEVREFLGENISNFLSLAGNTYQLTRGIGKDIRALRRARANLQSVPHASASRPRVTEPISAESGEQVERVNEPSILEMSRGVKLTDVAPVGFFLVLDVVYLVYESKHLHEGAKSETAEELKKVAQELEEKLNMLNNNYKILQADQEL
# experimentDescription: Multi-Tox Assay (MultiTox-Fluor Multiplex Cytotoxicity Assay in tet-inducible APOL1 T-REx-HEK293 cells; Table 46 does not say which APOL1 variant G0/G1/G2)
# assaySetup: IP50 = IC50 for cell proliferation, APOL1 variant not given
# IC50 values compiled below
recordedMetric: IC50

{"columns": ["compound", "recordedMetric", "endpointResult"],
 "data": [
  ["C[C@H]1C[C@@]2(C[C@@H](c3ccc(O)cn3)N1)OCCc1cc(Cl)sc12 (racemic)", "IC50", "< 50 nM"],
  ["C[C@H]1C[C@@]2(C[C@@H](c3cn(CCC4CCCOC4)nn3)N1)OC[C@@H](O)c1cc(Cl)sc12 (stereo partly drawn)", "IC50", "< 50 nM"],
  ["Cc1nc([C@@H]2C[C@]3(C[C@H](C)N2)OCCc2cc(Cl)sc23)co1 (racemic)", "IC50", "< 50 nM"],
  ["C[C@H]1C[C@@]2(C[C@@H](c3cn(Cc4cncs4)nn3)N1)OC[C@@H](O)c1cc(Cl)sc12", "IC50", "< 50 nM"],
  ["Cc1ccccc1C(O)Cn1cc([C@@H]2C[C@]3(C[C@H](C)N2)OCC(F)(F)c2cc(Cl)sc23)nn1 (stereo partly drawn)", "IC50", "50 to 500 nM"],
  ["C[C@H]1C[C@@]2(C[C@@H](c3cn(Cc4ncnc5[nH]ccc45)nn3)N1)OC[C@@H](O)c1cc(Cl)sc12", "IC50", "< 50 nM"],
  ["C[C@H]1C[C@@]2(C[C@@H](c3cn(CC(O)c4ccccc4)nn3)N1)OC[C@@H](O)c1cc(Cl)sc12 (stereo partly drawn)", "IC50", "50 to 500 nM"],
  ["CC1CC2(CC(c3cn(CC4CC4)nn3)N1)OCCc1cc(Cl)sc12 (stereo not drawn)", "IC50", "< 50 nM"],
  ["C[C@H]1C[C@@]2(C[C@@H](c3cn(CCO)nn3)N1)OC[C@@H](O)c1cc(Cl)sc12", "IC50", "50 to 500 nM"],
  ["Cc1cccc([C@@H]2C[C@]3(C[C@H](C)N2)OCCc2cc(Cl)sc23)n1 (racemic)", "IC50", "50 to 500 nM"],
  ["C[C@H]1C[C@@]2(C[C@@H](c3cnn(C)c3)N1)OCCc1cc(Cl)sc12", "IC50", "< 50 nM"],
  ["CC1CC2(CC(c3ccc4[nH]ncc4c3)N1)OCCc1cc(Cl)sc12 (stereo not drawn)", "IC50", "< 50 nM"],
  ["COCCn1cc([C@@H]2C[C@]3(C[C@H](C)N2)OCC(F)(F)c2cc(Cl)sc23)nn1", "IC50", "< 50 nM"],
  ["C[C@H]1C[C@@]2(C[C@@H](c3cn(CC4CCCCO4)nn3)N1)OCC(F)(F)c1cc(Cl)sc12 (stereo partly drawn)", "IC50", "50 to 500 nM"],
  ["C[C@H]1C[C@@]2(C[C@@H](c3cn(CC(=O)N4CCCCC4)nn3)N1)OCC(F)(F)c1cc(Cl)sc12", "IC50", "50 to 500 nM"]
]}
